Tested on: 186277-243-T-J2-PDC multi-cell spheroid viability;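 note: spheroids exposed to compounds for seven days before viability reading; 100% = DMSO vehicle control viability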
method summary: Anticancer human tumor 186277-243-T-J2-PDC patient-derived colon adenocarcinoma cell line growth inhibition [PI3K]
condition label: second compound 0.1 µM; first compound 1 µM; hits give low values
Excerpt: Combinatorial screen of targeted agents with the PI3K inhibitors inavolisib, alpelisib, duvelisib, and copanlisib in multi-cell type tumor spheroids A high-throughput screen of multi-cell type tumor spheroids was designed to identify active combinations of targeted small molecules and PI3K pathway inhibitors. […] Compounds. […] If the clinical Cmax for an agent had not been determined, the highest concentration tested was 10 microM. […]
# note: exactly 60% is not below, so it is 0 (no); use 1 (yes) for viability, T/C strictly under it

Some entries whose results are on file:
CC(C)NCC(C(=O)N1CCN(c2ncnc3c2C(C)CC3O)CC1)c1ccc(Cl)cc1 (stereo not given) + Cc1nc(NC(=O)N2CCCC2C(N)=O)sc1-c1ccnc(C(C)(C)C(F)(F)F)c1 : 1 (yes)
CC1(C)CCC(CN2CCN(c3ccc(C(=O)NS(=O)(=O)c4ccc(NCC5CCOCC5)c([N+](=O)[O-])c4)c(Oc4cnc5[nH]ccc5c4)c3)CC2)=C(c2ccc(Cl)cc2)C1 + CC(Nc1ccc2c(c1)OCCn1cc(N3C(=O)OCC3C(F)F)nc1-2)C(N)=O : 0 (no)
CC(Cn1ccc(-c2ccc(C#N)c(Cl)c2)n1)NC(=O)c1cc(C(C)O)[nH]n1 (stereo not given) + CC(Nc1ncnc2nc[nH]c12)c1cc2cccc(Cl)c2c(=O)n1-c1ccccc1 : 0 (no)

Here's the next entry for you.
*Q* hey, is viability, T/C for C[C@@H](NC(=O)c1ncnc(N)c1Cl)c1ncc(C(=O)Nc2cc(C(F)(F)F)c(Cl)cn2)s1 + COc1c(OCCCN2CCOCC2)ccc2c3n(c(=NC(=O)c4cnc(N)nc4)nc12)CCN3 lower than 60% or not?
*A* 1 (yes)
